# studyTarget: Tyrosyl-DNA phosphodiesterase 2 (Homo sapiens, UniProt O95551)
# Sequence (O95551 whole entry): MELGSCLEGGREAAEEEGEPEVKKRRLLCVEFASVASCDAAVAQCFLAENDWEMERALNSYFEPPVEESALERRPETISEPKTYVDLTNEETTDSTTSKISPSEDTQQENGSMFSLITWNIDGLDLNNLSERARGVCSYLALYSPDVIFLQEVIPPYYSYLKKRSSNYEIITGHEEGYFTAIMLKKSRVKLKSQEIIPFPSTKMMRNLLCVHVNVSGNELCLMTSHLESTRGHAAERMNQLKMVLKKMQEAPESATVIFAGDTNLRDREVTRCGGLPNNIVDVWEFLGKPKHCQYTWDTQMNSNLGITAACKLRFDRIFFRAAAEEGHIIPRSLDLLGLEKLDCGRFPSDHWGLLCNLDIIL
# measurementProtocol: TDP2 Assays with Whole Cell Extracts
# measurementParameters: pH 7.5
endpointLabel: IC50 (µM)
Give a bare numeral; the unit µM is implied.

Prompt: Name the recorded IC50 of the item "O=c1nc2n(-c3ccc(O)cc3)c3cc(Cl)ccc3cc-2c(=O)[nH]1" in your answer.
Response: 2.3
